Source listed as ChEMBL document CHEMBL1123108.

Target: Cytochrome P450 11A1 (desmolase, cholesterol side-chain cleavage enzyme) (Bos taurus)
Sequence (P00189 whole entry): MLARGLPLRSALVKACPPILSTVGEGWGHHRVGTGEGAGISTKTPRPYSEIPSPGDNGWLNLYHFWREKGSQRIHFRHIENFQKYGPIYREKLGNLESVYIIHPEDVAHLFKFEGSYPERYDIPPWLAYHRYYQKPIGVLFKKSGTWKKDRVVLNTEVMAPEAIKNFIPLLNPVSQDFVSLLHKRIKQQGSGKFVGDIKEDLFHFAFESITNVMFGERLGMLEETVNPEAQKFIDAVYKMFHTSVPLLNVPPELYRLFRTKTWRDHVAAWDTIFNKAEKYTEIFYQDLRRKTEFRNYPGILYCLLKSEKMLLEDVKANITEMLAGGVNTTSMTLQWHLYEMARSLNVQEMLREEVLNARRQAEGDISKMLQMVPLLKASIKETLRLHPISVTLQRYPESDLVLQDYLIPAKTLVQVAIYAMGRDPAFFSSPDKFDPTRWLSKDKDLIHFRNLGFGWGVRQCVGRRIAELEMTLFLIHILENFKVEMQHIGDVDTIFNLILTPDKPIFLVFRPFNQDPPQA
Experiment: Inhibition of bovine adrenal desmolase cytochrome P450 11A1 at 50 ug/mL
Details: cattle
property: inhibition at 50 ug/mL (%)
// note: answer is a bare numeric in %

State the recorded inhibition at 50 ug/mL for this entry: CCC1(c2ccncc2)CCC(=O)N(N)C1=O (stereo unspecified)
38
